B1: CCDC6 (parent)
chain: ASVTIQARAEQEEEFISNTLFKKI

Variants of: B1
Test: protein stability index of a GFP-peptide fusion (GPS, HEK-293T) (PSI 1-6); higher = more stable;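 further: lentivirally expressed fusions sorted by FACS into six bins by GFP to DsRed ratio, PSI derived from sequencing read proportions per bin multiplied by bin number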
Settings: c terminus: a fixed tail appended
# binarize protein stability index: threshold 4 inclusive, high side T, low side F

| Mutation label | Class label |
| --- | --- |
| E14W | F |
| R8L | F |
| K22T | F |
| A9M | F |
| E12M | F |
| E12S | F |
| T19D | F |
| K22R | F |
| T4F | F |
| E14G | F |
| S17W | F |
| S17C | F |
| R8A | F |
| F15P | T |
| I16E | T |
| I24Y | F |
| I5C | T |
| E13Q | F |
| E13Y | F |
| I24W | F |
| A7Y | F |
| T4Y | F |
| A1R | F |
| E10R | F |
| E13T | F |
| I24L | T |
| Q6H | F |
| E13H | F |
| K23Q | F |
| Q11G | F |
| T4E | T |
| T4P | T |
| L20V | F |
| I5A | T |
| K22D | F |
| Q11I | F |
| E12T | F |
| I5R | T |
| L20F | F |
| V3S | T |
| E12A | F |
| R8F | F |
| F21Y | F |
| K23R | F |
| T4R | F |
| I24M | F |
| Q11K | F |
| E10L | F |
| E10T | F |
| T19Y | F |
| S2R | F |
| T4V | F |
| E14D | F |
| R8H | F |
| K23V | F |
| Q11C | F |
| E13R | F |
| L20N | T |
| Q11A | F |
| E12V | F |
| I16G | T |
| T4I | F |
| Q11T | F |
| I16F | F |
| A7W | F |
| R8N | F |
| K22Q | F |
| E10Q | F |
| E13F | F |
| L20M | T |
| F21E | T |
| Q6T | F |
